experiment-notes: in vivo
condition-parameters: female, C57BL/6, mouse, plasma, iv, 1 mg/kg
value-kind: MRT inf

Q: Name the recorded MRT inf for N=C(N)c1ccc(OCCCCCOc2ccc(C(=N)N)cc2)cc1 [Pentamidine, pentamidine, reference compound] .
Ans: 24.7 min

---

experiment-notes: In vitro metabolic stability, rat
Type: in vitro ADME
condition-parameters: read-out: In vitro metabolic stability (t1/2, min), rat
value-kind: half-life (min)
# output: bare number, implied unit min

Q: Name the recorded half-life for N=C(N)c1ccc(OCCN(CCOc2ccc(C(=N)N)cc2)c2ccccc2)cc1 .
Ans: 110

---

experiment-notes: in vivo
condition-parameters: female, C57BL/6, mouse, in vivo, iv, 1 mg/kg
value-kind: AUC(0-t) (µg·h/mL)
# output: bare number, implied unit µg·h/mL

Q: Name the recorded AUC(0-t) for N=C(N)c1ccc(OCCN(CCOc2ccc(C(=N)N)cc2)c2ccccc2)cc1 .
Ans: 0.0516

---

experiment-notes: in vivo
condition-parameters: female, C57BL/6, mouse, in vivo, iv, 1 mg/kg
value-kind: AUC(0-inf) (ng·h/mL)
# output: bare number, implied unit ng·h/mL

Q: Name the recorded AUC(0-inf) for N=C(N)c1ccc(OCCN(CCOc2ccc(C(=N)N)cc2)c2ccccc2)cc1 .
Ans: 55.3

---

experiment-notes: in vivo
condition-parameters: female, C57BL/6, mouse, plasma, iv, 1 mg/kg
value-kind: AUC(0-t) (ng·h/mL)
# output: bare number, implied unit ng·h/mL

Q: Name the recorded AUC(0-t) for N=C(N)c1ccc(OCCCCCOc2ccc(C(=N)N)cc2)cc1 [Pentamidine, pentamidine, reference compound] .
Ans: 116

---

subject-of-test: CYP3A4 (Homo sapiens, UniProt P08684)
Sequence (P08684 whole entry): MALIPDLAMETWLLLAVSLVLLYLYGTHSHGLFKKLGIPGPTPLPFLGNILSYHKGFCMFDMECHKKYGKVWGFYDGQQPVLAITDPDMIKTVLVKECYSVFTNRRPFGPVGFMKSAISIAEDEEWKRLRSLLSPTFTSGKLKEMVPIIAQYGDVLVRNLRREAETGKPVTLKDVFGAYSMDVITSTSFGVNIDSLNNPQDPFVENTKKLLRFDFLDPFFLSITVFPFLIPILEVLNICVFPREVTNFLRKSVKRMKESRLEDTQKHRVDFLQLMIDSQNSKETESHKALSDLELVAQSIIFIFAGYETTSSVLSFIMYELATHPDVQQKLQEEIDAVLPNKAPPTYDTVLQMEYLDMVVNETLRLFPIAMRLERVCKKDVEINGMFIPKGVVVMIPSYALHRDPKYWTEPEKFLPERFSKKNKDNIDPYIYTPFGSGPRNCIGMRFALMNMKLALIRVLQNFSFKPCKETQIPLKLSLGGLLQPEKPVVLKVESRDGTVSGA
value-kind: IC50

Q: Form: Entry = N=C(N)c1ccc(OCCN(CCOc2ccc(C(=N)N)cc2)c2ccccc2)cc1 | System = CYP3A4 (Homo sapiens, UniProt P08684) | IC50 = ____
Ans: > 50 µM

---

System: HepG2 cells
condition-parameters: human, 72 h
value-kind: AC50

Q: Name the recorded AC50 for N=C(N)c1ccc(OCCCCCOc2ccc(C(=N)N)cc2)cc1 [Pentamidine, pentamidine, reference compound] .
Ans: > 150 µM

---

experiment-notes: in vitro
condition-parameters: human, Nuclear Size AC50 (μM)
value-kind: AC50 at 72 h (µM)
# output: bare number, implied unit µM

compound	reading-unit	AC50 at 72 h
N=C(N)c1ccc(OCCCCCOc2ccc(C(=N)N)cc2)cc1 [Pentamidine, pentamidine, reference compound]	µM	2.28

Next item in the queue.
Q: Name the recorded AC50 at 72 h for N=C(N)c1ccc(OCCN(CCOc2ccc(C(=N)N)cc2)c2ccccc2)cc1 [Analog P35] .
Ans: 94.5

---

experiment-notes: in vivo
condition-parameters: female, C57BL/6, mouse, plasma, iv, 1 mg/kg
value-kind: half-life (h)
# output: bare number, implied unit h

Q: Name the recorded half-life for N=C(N)c1ccc(OCCCCCOc2ccc(C(=N)N)cc2)cc1 [Pentamidine, pentamidine, reference compound] .
Ans: 1.96

---

subject-of-test: CYP2C19 (Homo sapiens)
Sequence (P33261 whole entry): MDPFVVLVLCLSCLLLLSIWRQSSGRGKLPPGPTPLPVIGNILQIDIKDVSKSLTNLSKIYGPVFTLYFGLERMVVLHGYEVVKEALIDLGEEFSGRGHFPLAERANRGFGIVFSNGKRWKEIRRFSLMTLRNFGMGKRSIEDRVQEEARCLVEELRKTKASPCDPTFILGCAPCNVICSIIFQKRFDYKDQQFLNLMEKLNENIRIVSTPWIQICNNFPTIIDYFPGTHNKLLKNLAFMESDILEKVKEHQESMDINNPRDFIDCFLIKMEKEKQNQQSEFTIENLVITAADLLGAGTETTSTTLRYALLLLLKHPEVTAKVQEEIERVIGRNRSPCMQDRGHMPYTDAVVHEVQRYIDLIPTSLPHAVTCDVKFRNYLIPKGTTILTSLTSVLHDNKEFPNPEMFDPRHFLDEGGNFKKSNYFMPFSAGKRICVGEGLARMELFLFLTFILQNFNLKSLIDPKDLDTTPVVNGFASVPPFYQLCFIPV
pIC50: −log10 of the molar value.
value-kind: pIC50

Q: Name the recorded pIC50 for N=C(N)c1ccc(OCCN(CCOc2ccc(C(=N)N)cc2)c2ccccc2)cc1 .
Ans: < 4.30

---

experiment-notes: Solubility at pH 7.4
Assay type: physicochemical
condition-parameters: pH 7.4, aqueous buffer, thermodynamic from solid; read-out: Kinetic solubility (μM @ pH 7.4)
value-kind: thermodynamic solubility (µM)
# output: bare number, implied unit µM

Q: Name the recorded thermodynamic solubility for N=C(N)c1ccc(OCCN(CCOc2ccc(C(=N)N)cc2)c2ccccc2)cc1 .
Ans: 182

---

experiment-notes: Plasma protein binding (equilibrium dialysis)
Format: in vitro ADME
condition-parameters: rat plasma
value-kind: fraction unbound
Respond using a number only.

Q: Name the recorded fraction unbound for N=C(N)c1ccc(OCCN(CCOc2ccc(C(=N)N)cc2)c2ccccc2)cc1 .
Ans: 0.077

---

experiment-notes: HEK293 cytotoxicity assay (Cell Titer Glo)
Assay type: cell-based
condition-parameters: human, HEK293T Cytotoxicity (IC50, μg/mL)
Please note: IC50 at 48 h exactly at 100 µg/mL is no (0). Only values below 100 µg/mL get yes (1).

compound	qualitative-label
N=C(N)c1ccc(OCCC[C@@H]2CCCN(c3ccc(C(=N)N)cc3)C2)cc1 [Analog P24A]	yes (1)
C[C@@H](CCCOc1ccc(C(=N)N)cc1)COc1ccc(C(=N)N)cc1 [Analog P22R]	yes (1)
N=C(N)c1ccc(OCCC2(CCOc3ccc(C(=N)N)cc3)CCC(C(=O)O)CC2)cc1 (centres unmarked)	no (0)

Q: State whether 100 µg/mL exceeds IC50 at 48 h recorded for N=C(N)c1ccc(OCCCCCOc2ccc(C(=N)N)nc2)cn1 .
Ans: no (0)

Q: State whether 100 µg/mL exceeds IC50 at 48 h recorded for N=C(N)c1ccc(OCCC2(CCOc3ccc(C(=N)N)cc3)CCCCCC2)cc1 .
Ans: yes (1)

Q: State whether 100 µg/mL exceeds IC50 at 48 h recorded for N=C(N)c1ccc(OCCNCCOc2ccc(C(=N)N)cc2)cc1 [Analog P31A] .
Ans: no (0)

Q: State whether 100 µg/mL exceeds IC50 at 48 h recorded for N=C(N)c1ccc(OCCC2(CCOc3ccc(C(=N)N)cc3)CCCC2)cc1 .
Ans: yes (1)

Q: State whether 100 µg/mL exceeds IC50 at 48 h recorded for N=C(N)c1ccc(OCCCCCOc2ccc(C(=N)N)cn2)nc1 .
Ans: no (0)

Q: State whether 100 µg/mL exceeds IC50 at 48 h recorded for C[C@@H](CCC[C@H](C)Oc1ccc(C(=N)N)cc1)Oc1ccc(C(=N)N)cc1 [Analog P15A] .
Ans: no (0)

Q: State whether 100 µg/mL exceeds IC50 at 48 h recorded for CC(C)(CCOc1ccc(C(=N)N)cc1)CCOc1ccc(C(=N)N)cc1 .
Ans: yes (1)

Q: State whether 100 µg/mL exceeds IC50 at 48 h recorded for N=C(N)c1ccc(OCCCCCOc2ccc(C(=N)N)cc2F)c(F)c1 .
Ans: yes (1)

Q: State whether 100 µg/mL exceeds IC50 at 48 h recorded for N=C(N)c1ccc(OCC2(COc3ccc(C(=N)N)cc3)CCCCC2)cc1 .
Ans: yes (1)

---

experiment-notes: in vivo
condition-parameters: female, C57BL/6, mouse, in vivo, iv, 1 mg/kg
value-kind: MRT inf (h)
# output: bare number, implied unit h

Q: Name the recorded MRT inf for N=C(N)c1ccc(OCCN(CCOc2ccc(C(=N)N)cc2)c2ccccc2)cc1 .
Ans: 1.85

---

Test system: LPS from E. coli EH100
experiment-notes: BODIPY-Cadaverine LPS displacement assay
Assay type: binding
condition-parameters: BODIPY-cadaverine displacement from E. coli EH100 LPS
value-kind: LPS Displacement (EC50, μg/mL) (µg/mL)
# output: bare number, implied unit µg/mL

Look over these answered cases.
compound	LPS Displacement (EC50, μg/mL) / µg/mL
N=C(N)c1ccc(OCCNCCOc2ccc(C(=N)N)cc2)cc1 [Analog P31A]	497.8
N=C(N)c1ccc(OCCC2(CCOc3ccc(C(=N)N)cc3)CCCC2)cc1	77.29
N=C(N)c1ccc(OCCC2(CCOc3ccc(C(=N)N)cn3)CCCC2)nc1	48.34
N=C(N)c1ccc(OCCN(CCOc2ccc(C(=N)N)cc2)Cc2ccccc2)cc1	165.9

Q: Name the recorded LPS Displacement (EC50, μg/mL) for C[C@@H](CCC[C@H](C)Oc1ccc(C(=N)N)cc1)Oc1ccc(C(=N)N)cc1 [Analog P15A] .
Ans: 118.2

Q: Name the recorded LPS Displacement (EC50, μg/mL) for N=C(N)c1ccc(OCCC2(CCOc3ccc(C(=N)N)cc3)CCCCCC2)cc1 .
Ans: 15.97

Q: Name the recorded LPS Displacement (EC50, μg/mL) for N=C(N)c1ccc(OCCCCCOc2ccc(C(=N)N)cc2F)c(F)c1 .
Ans: 63.21

Q: Name the recorded LPS Displacement (EC50, μg/mL) for N=C(N)c1ccc(OC2CCC(Oc3ccc(C(=N)N)cc3)CC2)cc1 (stereo not drawn) .
Ans: 288.7

Q: Name the recorded LPS Displacement (EC50, μg/mL) for N=C(N)c1ccc(OCC2(COc3ccc(C(=N)N)cc3)CCCCC2)cc1 .
Ans: 43.82

Q: Name the recorded LPS Displacement (EC50, μg/mL) for N=C(N)c1ccc(OCCCCCOc2ccc(C(=N)N)cc2)cc1 [Pentamidine, pentamidine, reference compound] .
Ans: 231

Q: Name the recorded LPS Displacement (EC50, μg/mL) for CCC(CC)(CCOc1ccc(C(=N)N)cc1)CCOc1ccc(C(=N)N)cc1 .
Ans: 19.04

Q: Name the recorded LPS Displacement (EC50, μg/mL) for C[C@H](CCC[C@H](C)Oc1ccc(C(=N)N)cc1)Oc1ccc(C(=N)N)cc1 [Analog P15B] .
Ans: 132.5

Q: Name the recorded LPS Displacement (EC50, μg/mL) for C[C@H](CCC[C@@H](C)Oc1ccc(C(=N)N)cc1)Oc1ccc(C(=N)N)cc1 [Analog P15C] .
Ans: 148.8

Q: Name the recorded LPS Displacement (EC50, μg/mL) for C[C@H](CCCOc1ccc(C(=N)N)cc1)COc1ccc(C(=N)N)cc1 [Analog P22S] .
Ans: 59.08

Q: Name the recorded LPS Displacement (EC50, μg/mL) for N=C(N)c1ccc(OCCN(CCOc2ccc(C(=N)N)cc2)CCC(F)(F)F)cc1 .
Ans: 134.3

Q: Name the recorded LPS Displacement (EC50, μg/mL) for N=C(N)c1ccc(OCCC(CCOc2ccc(C(=N)N)cc2)N2CCCC2)cc1 (stereo not drawn) .
Ans: 202

Q: Name the recorded LPS Displacement (EC50, μg/mL) for N=C(N)c1ccc(OCCC2CCCCC2CCOc2ccc(C(=N)N)cc2)cc1 (stereo not drawn) .
Ans: 13.08

Q: Name the recorded LPS Displacement (EC50, μg/mL) for N=C(NC1CCCCC1)c1ccc(OCCCCCOc2ccc(C(=N)NC3CCCCC3)nc2)cn1 .
Ans: 218.8
